Origin of measurements: patent US20030068675

experimental_target: T1, ZFP SBS#1357 (synthetic)
T1 chain: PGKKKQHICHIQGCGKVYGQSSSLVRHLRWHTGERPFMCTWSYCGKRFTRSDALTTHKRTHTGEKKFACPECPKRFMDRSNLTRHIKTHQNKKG
test_description: EMSA
applied_conditions: tags: MBP fusion
outcome_measure: pKd
Give bare numbers, as −log10 of the molar value.

Input: # lookup: pKd of GACTTGGTA (dsDNA) DNA 1: GACTTGGTA DNA 2: TACCAAGTC
Output: 10.49
